Origin of values: paper PMC9229927

- System name: mushroom tyrosinase (Agaricus bisporus, UniProt C7FF04)
- Sequence (C7FF04 1-392): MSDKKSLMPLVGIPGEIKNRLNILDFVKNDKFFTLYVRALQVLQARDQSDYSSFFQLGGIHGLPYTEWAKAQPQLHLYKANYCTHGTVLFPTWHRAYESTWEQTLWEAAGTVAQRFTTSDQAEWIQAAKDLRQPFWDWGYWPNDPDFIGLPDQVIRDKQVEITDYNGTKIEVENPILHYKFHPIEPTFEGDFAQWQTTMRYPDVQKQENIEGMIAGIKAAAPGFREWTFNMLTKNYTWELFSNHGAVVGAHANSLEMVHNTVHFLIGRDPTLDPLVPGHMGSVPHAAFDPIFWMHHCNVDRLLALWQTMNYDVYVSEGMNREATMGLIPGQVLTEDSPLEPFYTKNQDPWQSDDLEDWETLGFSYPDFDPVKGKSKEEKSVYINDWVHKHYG
- Assay type: biochemical
Test readout: tyrosinase inhibition, rating in words

>>> df
                                   compound                               system_name     value_measured
0  CCCC/C=C\CCCCCCCCCCC[C@]1(O)CC[C@@H](O)[C@H](O)C1 [Compound 4]  mushroom tyrosinase (Agaricus bisporus, UniProt C7FF04)  moderately active
1  CCCC/C=C\CCCCCCCCCCC[C@@]1(O)CCC[C@@H](O)C1 [Compound 2]  mushroom tyrosinase (Agaricus bisporus, UniProt C7FF04)    good inhibition
2  CCCC/C=C\CCCCCCCCCCCc1cccc(O)c1 [Compound 1, 3-heptadec-12′-Z-enyl phenol]  mushroom tyrosinase (Agaricus bisporus, UniProt C7FF04)  moderately active
3  CCCC/C=C\CCCCCCCCCCCC[C@@]1(O)C[C@@H](O)[C@H](O)[C@@H](O)[C@H]1O [Compound 3]  mushroom tyrosinase (Agaricus bisporus, UniProt C7FF04)    good inhibition
